Test system: MOLT-4
Experiment: NCI tumour cell line growth inhibition, 48 h
Activity calls are given as the source filed them. Cut-off read from the data, not from the text of the source: active = GI50 up to about 1.1 µM and inactive = higher.
QUANTITY: GI50

Here's what some known entries look like.
# COMPOUND, GI50
records = [
    ("Nc1cc2c(cc1[N+](=O)[O-])[nH]c1c(-c3ccccc3)nccc12", "4.43 µM (inactive)"),
    ("Nc1ccccc1CCCC(=O)O", "> 100 µM (inactive)"),
    ("O=C1CSC(c2cccc(Oc3ccccc3)c2)N1c1ccc(Cl)cc1 (stereo unspecified)", "13.6 µM (inactive)"),
    ("c1cc(C[S+]2CCCC2)ccc1C[S+]1CCCC1", "> 100 µM (inactive)"),
    ("CN1C/C(=C\\c2cccs2)C2=NC(=S)NC(c3cccs3)C2C1 (stereo unspecified)", "19.5 µM (inactive)"),
]

The value of GI50 recorded for `O=C(CCN1CC2CCC(CC2)C1)c1cccs1` when tested on MOLT-4 reads 3.32 µM (inactive)

----------
Tested on: LOX IMVI
Assay: NCI tumour cell line growth inhibition, 48 h
The source made the active and inactive calls. Cut-off read from the data, not from the text of the source: active = GI50 up to about 1.1 µM and inactive = higher.
QUANTITY: GI50

# COMPOUND, MEASURED
measured = [
    ("COc1cc2c(c(OC)c1OC)-c1ccc(SC)c(=O)cc1C(CC(=O)Oc1ccc(F)cc1)C2 (centres undefined)", "0.236 µM (active)"),
    ("CC/C=C/c1cc2c(c3[nH]ccc13)[C@@H](C)CC2C.CC/C=C/c1cc2cc[nH]c2c2c1C(C)C[C@@H]2C.CCc1cc2c(c3[nH]ccc13)[C@@H](C)CC2C (some centres undefined)", "15.6 µM (inactive)"),
    ("CCCCCCCCCc1cccc(N2C(N)=NC(N)=NC2(C)C)c1", "< 0.01 µM (active)"),
    ("CCOc1ccc(OCC(=O)O)c2c1CCCC2=O", "> 100 µM (inactive)"),
    ("[O-][S+](Cc1cc2c(cc1Br)OCO2)c1ccccc1 (centres undefined)", "15.7 µM (inactive)"),
]

Could you tell me GI50 for each of these compounds? They are listed below.
1. COC1=CC(=O)C2=C(C1=O)[C@H]1CC[C@]3(C)[C@@H](O)CC[C@H]3[C@@H]1CC2
2. N=C(N)NCCCC(NCc1c2ccccc2[n+]([O-])c2ccccc12)C(=O)O (centres undefined)

1. 19.8 µM (inactive)
2. 34.5 µM (inactive)

----------
Test system: KM-20L2
Assay: NCI tumour cell line growth inhibition, 48 h
The source made the active and inactive calls. No stated cut-off is given here; in the data, active = GI50 up to about 1.1 µM and inactive = higher.
QUANTITY: GI50

# MOLECULE, QUANTITY, MEASURED
measured = [
    ("CCN(CC)C1CC(O[C@H]2C[C@](O)(C(=O)CO)Cc3c(O)c4c(c(O)c32)C(=O)c2c(OC)cccc2C4=O)OC(C)C1O (stereo not given in full)", "GI50", "0.0733 µM (active)"),
    ("[O-][S+](Cc1cc2c(cc1Br)OCO2)c1ccccc1 (stereo not given)", "GI50", "71.4 µM (inactive)"),
    ("Cc1c2ccc3ccccc3c2c[n+]2ccccc12", "GI50", "19.7 µM (inactive)"),
    ("CC1=C(c2cc(C(=O)Nc3ccc(Cl)c(Cl)c3)nc(N)n2)Sc2ccccc2N1", "GI50", "> 100 µM (inactive)"),
    ("COc1cc2c(cc1OC)[Se]c1cc(OC)c(OC)cc1[Se]2", "GI50", "> 10 µM (inactive)"),
]

Give one value of GI50 per listed molecule.
1. CN(C)CCN1CCc2c([nH]c3ccccc23)C1c1cccnc1 (stereo not given)
2. CC(=O)OCc1cc2c(s1)C(=O)c1sccc1C2=O
3. O=C1OC(CC(=O)c2ccc(Cl)c(Cl)c2)C(Cl)=C1Cl (stereo not given)
4. Cc1cc(NS(=O)(=O)c2ccc(NC(=O)c3cccn4c(=O)c5ccccc5nc34)cc2)no1
5. COc1ccc(C(=O)c2c(C(C(=O)c3ccc(OC)cc3)C(=O)c3ccc(OC)cc3)n(C(=O)c3ccc(OC)cc3)c3ccccc23)cc1

1. > 100 µM (inactive)
2. 2.24 µM (inactive)
3. > 100 µM (inactive)
4. > 100 µM (inactive)
5. > 100 µM (inactive)

----------
Test system: SK-OV-3
Assay: NCI tumour cell line growth inhibition, 48 h
Active and inactive are the calls of the source. Rule as the data show it: active = GI50 up to about 1.1 µM and inactive = higher.
For each of the compounds below, state its GI50.

The examples below pair each entry with its known result.
# COMPOUND, TESTED TARGET, QUANTITY, MEASURED
data = [
    ("Cc1cc(-c2ccc(C(=O)O)[nH]2)on1", "SK-OV-3", "GI50", "32.6 µM (inactive)"),
    ("COc1nc(NC2OCC(OC(C)=O)C(OC(C)=O)C2OC(C)=O)c(-c2csc(N)n2)c(=O)n1C (configuration not stated)", "SK-OV-3", "GI50", "> 100 µM (inactive)"),
]

Each of the following entries comes with a recorded value; kindly state GI50 for each.
1. COC(=O)C1=C(O)C(C(=O)OC)[C@]2(O)[C@H](C(=O)OC)[C@H]1C[C@@H](c1ccc(Cl)cc1Cl)[C@H]2C(=O)OC (some centres not stated)
2. O=S1(=O)N=C(SCc2ccccc2)N(c2ccccc2)c2ccncc21
3. CCOC(=O)CC1CCN(C(=O)c2ccccc2)C2Cc3c([nH]c4ccccc34)C12C[N+](=O)[O-] (configuration not stated)
4. CC(=O)OCC1OC(Nc2nc(O)n(C)c(=O)c2-c2csc(N)n2)C(OC(C)=O)C(OC(C)=O)C1OC(C)=O (configuration not stated)
5. COC(=O)/C=C(\C(=O)OC)C1C(=O)Oc2c(C)c(=O)c3ccccc3n21 (configuration not stated)

13.2 µM (inactive)
38.8 µM (inactive)
> 100 µM (inactive)
> 100 µM (inactive)
> 100 µM (inactive)

----------
Test system: M19-MEL
Assay: NCI tumour cell line growth inhibition, 48 h
Activity calls are given as the source filed them. Cut-off read from the data, not from the text of the source: active = GI50 up to about 1.1 µM and inactive = higher.
QUANTITY: GI50

# MOLECULE, GI50
data = [
    ("COc1ccc(C(=O)c2c(C(C(=O)c3ccc(OC)cc3)C(=O)c3ccc(OC)cc3)n(C(=O)c3ccc(OC)cc3)c3ccccc23)cc1", "> 100 µM (inactive)"),
]

# map each molecule to its GI50
1. Cc1ncc(CCl)c2c1OC(C)(C)OC2
2. Cc1cccc2c1C(=O)OC2(c1cccc2ccccc12)c1cccc2ccccc12

1: 74 µM (inactive); 2: > 100 µM (inactive)

# batch: return GI50 for each of the 6 molecules below
1. Cc1c(C(=O)/C=C/c2ccccc2O)c(=O)n(-c2ccccc2)n1C
2. CCOC(=O)C(C)Sc1nnc(COc2ccccc2OC)n1-c1ccccc1 (stereo not given)
3. CC(=O)NC1COC(COC(=O)CCCCCCCCCCNC(=O)c2ccc([N+](=O)[O-])c3c(=O)c4ccccc4[nH]c23)C(O)C1OC(C)C(=O)NC(C(=O)NC(CCC(N)=O)C(=O)OCc1ccccc1)C(C)C (stereo not given)
4. CCOc1ccc(OCC(=O)O)c2c1CCCC2=O
5. CC(C)Cn1cnc2c(Sc3c([N+](=O)[O-])ncn3C)nc(N)nc21
6. CC(=O)OC(CCC1(C)OC1COc1ccc(CCNC(=O)C=C(C)C)cc1)C(C)(C)OC(C)=O (stereo not given)

23.9 µM (inactive)
> 100 µM (inactive)
3.27 µM (inactive)
> 100 µM (inactive)
> 100 µM (inactive)
19.7 µM (inactive)

The observed GI50 for `O=C1[C@H](Cl)[C@H]2c3cc4ccccc4nc3Oc3ccccc3N12` when tested with M19-MEL stands at 34.8 µM (inactive)

----------
For each entry below, report its GI50 value.
Test system: BT-549
Experiment: NCI tumour cell line growth inhibition, 48 h
Calls of active or inactive are those of the source. No stated cut-off is given here; in the data, active = GI50 up to about 1.1 µM and inactive = higher.

# MOLECULE, GI50
rows = [
    ("Cc1oc2nc(N(C)C)nc(NN)c2c1C", "> 100 µM (inactive)"),
    ("O=C(O)CCCCCNC(=O)CCC(CN(CC(=O)OCc1ccccc1)CC(=O)OCc1ccccc1)N(CC(=O)OCc1ccccc1)CC(=O)OCc1ccccc1 (centres undefined)", "18.9 µM (inactive)"),
    ("c1ccc(CNCCCCNCCCNCc2ccccc2)cc1", "16.3 µM (inactive)"),
]

Take each entry in turn and give its GI50.
1. Cc1ccc(/C=C2\Cc3cc(C)c(C)cc3C2=O)c(C(=O)O)c1
2. O=[N+]([O-])c1cc2c(c([N+](=O)[O-])c1)NCc1ccccc1O2
3. O=C1C2CCN(CC2)C1CN1CCOCC1 (centres undefined)
4. CC1=C(C(=O)N[C@@H](Cc2ccccc2)C(=O)O)N2C(=O)[C@@H](NC(=O)[C@@H](N)CC(C)C)[C@H]2SC1
5. C[N+](C)(C)CC(=O)N/N=C(/CC1OC(=O)c2ccccc21)c1ccccc1O (centres undefined)
6. Cc1c(O)c(OC2OC(CO)C(O)C(O)C2O)cc2c1CC[C@@H]1C2(C)C(=O)C[C@]2(C)[C@@H]([C@@](C)(O)C3CCC(C)(C)O3)[C@H](O)C[C@@]12C (some centres undefined)

1: 16.3 µM (inactive); 2: > 100 µM (inactive); 3: 2.28 µM (inactive); 4: > 100 µM (inactive); 5: 25.1 µM (inactive); 6: > 100 µM (inactive)
